target: Factor VII (Homo sapiens, UniProt P08709); construct: Factor VII/VIIa (6), Factor X (7), and Factor Xa (8) were isolated as previously reported; assay: Two-stage clotting assay specific for Factor VII function in Factor VII-depleted plasma; type: biochemical; settings: Table 2; Factor VII-depleted plasma, tissue factor; read-out: Concentration for 50% Inhibition, VIIa Coagulant Activity
Sequence (P08709 61-466): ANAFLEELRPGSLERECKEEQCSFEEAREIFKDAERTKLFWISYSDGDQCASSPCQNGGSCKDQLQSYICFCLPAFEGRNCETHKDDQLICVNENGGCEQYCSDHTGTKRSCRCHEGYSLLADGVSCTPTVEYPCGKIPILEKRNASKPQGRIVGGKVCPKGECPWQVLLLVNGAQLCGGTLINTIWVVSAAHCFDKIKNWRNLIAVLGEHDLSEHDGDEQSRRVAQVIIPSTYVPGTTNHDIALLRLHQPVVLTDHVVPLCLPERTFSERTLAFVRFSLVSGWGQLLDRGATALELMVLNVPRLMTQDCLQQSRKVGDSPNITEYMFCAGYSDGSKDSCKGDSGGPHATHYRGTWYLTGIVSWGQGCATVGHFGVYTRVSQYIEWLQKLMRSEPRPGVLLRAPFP
Ends that are not written are not given here.

- SUBSTANCE: "LGEHDLSEHDGDEQSRRVAQVIGC-NH2 [Peptide 208-229]"
  IC50 [µM]: 225
- SUBSTANCE: "VYTRVSQYIEWLQKL-NH2 [Peptide 376-390, VYTRVSQYIEWLQKL]"
  IC50 [µM]: 172

* * *

target: Factor VII-tissue factor complex (Homo sapiens, UniProt P08709+P13726); construct: Factor VII/VIIa (6), Factor X (7), and Factor Xa (8) were isolated as previously reported; Tissue factor was prepared from human brain as described (9); from tissue; host or cells: Tissue factor from human brain (gift of Dr. J. H. Morrissey); assay: Rate of Factor X activation, two-stage chromogenic (amidolytic) assay with purified proteins; assay type: biochemical; settings: derivatives of peptide 194-214 (FIG. 4); read-out: Apparent CI50, rate of Factor Xa formation
Sequence (P08709 61-466): as the sequence (P08709 61-466) above
Sequence (P13726 33-295): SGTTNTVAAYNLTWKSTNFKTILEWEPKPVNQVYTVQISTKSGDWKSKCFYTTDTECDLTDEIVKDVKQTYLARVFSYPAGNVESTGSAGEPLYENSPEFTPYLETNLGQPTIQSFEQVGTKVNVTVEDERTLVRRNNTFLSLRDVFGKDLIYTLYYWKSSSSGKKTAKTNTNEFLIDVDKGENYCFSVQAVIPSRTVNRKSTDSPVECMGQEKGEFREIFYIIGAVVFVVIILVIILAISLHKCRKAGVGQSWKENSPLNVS
pIC50: −log10 of the molar value. Ends that are not written are not given here.
Let's look at some substances and their measured pIC50.

- SUBSTANCE: "AVLGEHDLSEHDG [Peptide 206-218, AVLGEHDLSEHDG]"
  pIC50: "~4.30"
- SUBSTANCE: "GEHDLSEHDGDEQ [Peptide 209-221, GEHDLSEHDGDEQ]"
  pIC50: "~4.15"
- SUBSTANCE: "CFDKIKNWRNLIAVLGEHDLS-NH2 [Peptide 194-214]"
  pIC50: "~4.15"
- SUBSTANCE: "LGEHDLSEHDGDEQSRRVAQVIGC-NH2 [Peptide 208-229]"
  pIC50: "~4.30"

* * *

target: Factor VII-tissue factor complex; assay: Rate of Factor X activation, two-stage chromogenic (amidolytic) assay with purified proteins; assay type: biochemical, human; conditions: from Dixon plots of the rate of Factor Xa formation; three Factor X concentrations; read-out: Ki, peptide inhibition constants for Factor VII activity
pKi: −log10 of the molar value. Ends that are not written are not given here.
PARAMETER_MEASURED: pKi

- SUBSTANCE: "GQLLDRGATALELMVLNVPRLGC-NH2 [Peptide 285-305]"
  PARAMETER_MEASURED: "pKi"
  EXPERIMENTAL_RESULT: 5.55
